- Tested on: rgSARS‐CoV‐2‐M^pro/T21I+E166V
- Assay type: cell-based, SARS‐CoV‐2
- condition.summary: read-out: EC50 ± SD, rgSARS‐CoV‐2‐M^pro/T21I +E166V
In this section, each of the compounds is paired with its reported pEC50.
Note on units: pEC50 is unitless, being -log10 of a concentration expressed in mol/L.

The cases that follow already have their pEC50 on record.
compound: Cc1cncc(C(=O)N2C[C@H]3CC[C@@H](C2)N3C(c2cccc(F)c2)c2cn(CCc3ccsc3)nn2)c1 (stereo partly shown) [Compound C5N17]
result.number: 5.83
//
compound: Cc1cncc(C(=O)N2C[C@H]3CC[C@@H](C2)N3C(c2cccc(F)c2)c2cccc(F)c2)c1 [AA‐625, reference compound]
result.number: 5.47

So for Cc1cncc(C(=O)N2C[C@H]3CC[C@@H](C2)N3[C@H](c2cccc(F)c2)c2cn(CCc3ccsc3)nn2)c1 [Compound C5N17B] , the logged pEC50 turned out to be 6.59

* * *

- System: SARS‐CoV‐2 (hCoV‐19/Korea/KCDC06/2020, wild type)
- method.summary: microbe, parasite or virus in culture
- Format: cell-based
- condition.summary: Severe acute respiratory syndrome coronavirus 2, Calu-3; Gamma, Delta, and Omicron; read-out: EC50 against several SARS‐CoV‐2 variants
pEC50: −log10 of the molar value.
measured.attribute: pEC50

Looking up Cc1cncc(C(=O)N2C[C@H]3CC[C@@H](C2)N3[C@H](c2cccc(F)c2)c2cn(CCc3ccsc3)nn2)c1 [Compound C5N17B] , I found its pEC50 recorded as 6.59 to 6.89

* * *

- Tested on: rgSARS‐CoV‐2‐M^pro/L50F+E166V
- Format: cell-based, SARS‐CoV‐2
- condition.summary: read-out: EC50 ± SD, rgSARS‐CoV‐2‐M^pro/L50F+E166V
The following molecules are shown together with reported EC50 values.
All answers are understood in nM, so give the number only.

See these solved cases before continuing.
molecule: Cc1cncc(C(=O)N2C[C@H]3CC[C@@H](C2)N3[C@H](c2cccc(F)c2)c2cn(CCc3ccsc3)nn2)c1 [Compound C5N17B]
EC50 (nM): 150

molecule: Cc1cncc(C(=O)N2C[C@H]3CC[C@@H](C2)N3C(c2cccc(F)c2)c2cn(CCc3ccsc3)nn2)c1 (stereo partly shown) [Compound C5N17]
EC50 (nM): 966

We now examine a further molecule.
Please fill in: EC50 reported for Cc1cncc(C(=O)N2C[C@H]3CC[C@@H](C2)N3C(c2cccc(F)c2)c2cccc(F)c2)c1 [AA‐625, reference compound] = 5710
